# experimental.details: Caco-2 flux assay for cellular permeability
# condition.details: human, Caco-2
Reported efflux ratio at 2 h by item:
measured.attribute: efflux ratio at 2 h

>  <compound>
CCN[C@H]1CCc2c(C)c(F)cc3nc4c(c1c23)Cn1c-4cc2c(c1=O)COC(=O)[C@]2(O)CC.O=C(O)C(F)(F)F [Compound 16]

>  <measured.attribute>
efflux ratio at 2 h

>  <measurement>
0.5 to 2

$$$$
>  <compound>
CCN(CC)[C@H]1CCc2c(C)c(F)cc3nc4c(c1c23)Cn1c-4cc2c(c1=O)COC(=O)[C@]2(O)CC [Compound 17]

>  <measured.attribute>
efflux ratio at 2 h

>  <measurement>
0.5 to 2

$$$$
>  <compound>
CC[C@@]1(O)C(=O)OCc2c1cc1n(c2=O)Cc2c-1nc1cc(F)c(C)c3c1c2[C@@H](NC(C)=O)CC3 [Compound 7]

>  <measured.attribute>
efflux ratio at 2 h

>  <measurement>
> 2

$$$$
>  <compound>
CC[C@@]1(O)C(=O)OCc2c1cc1n(c2=O)Cc2c-1nc1cc(F)c(C)c3c1c2[C@@H](NC(=O)C(F)(F)F)CC3 [Compound 8]

>  <measured.attribute>
efflux ratio at 2 h

>  <measurement>
> 2

$$$$
>  <compound>
CC[C@@]1(O)C(=O)OCc2c1cc1n(c2=O)Cc2c-1nc1cc(F)c(C)c3c1c2[C@@H](NC(=O)Cc1ccncc1)CC3 [Compound 9]

>  <measured.attribute>
efflux ratio at 2 h

>  <measurement>
> 2

$$$$

----------
Reported IC50 by item:
# System: NCI H292
# experimental.details: Cytotoxicity in vitro in the presence and absence of elastase (MTT)
# Assay type: cell-based, human
# condition.details: read-out: NCI H292 IC 50 w elastase
Where a name gives a salt, the structure may show the parent alone.

>  <molecule>
CCCNC(=O)Nc1cccc(S(=O)(=O)Nc2cccc([C@H](CC(=O)O)NC(=O)Nc3ccc(NC(=O)NCCOCCOCCOCCC(=O)N[C@@H](CC(=O)O)C(=O)N4CCC[C@H]4C(=O)N[C@H](C(=O)O[C@]4(CC)C(=O)OCc5c4cc4n(c5=O)Cc5cc6cc7c(cc6nc5-4)OCO7)C(C)C)cc3)c2)c1 [Compound 15, sodium salt]

>  <target.under.test>
NCI H292

>  <IC50>
0.01 to 0.1 nM

$$$$
>  <molecule>
CCCNC(=O)Nc1cccc(S(=O)(=O)Nc2cccc([C@@H](CC(=O)O)NC(=O)Nc3ccc(NC(=O)NCCOCCOCCOCCC(=O)N[C@@H](CC(=O)O)C(=O)N4CCC[C@H]4C(=O)N[C@H](C(=O)O[C@]4(CC)C(=O)OCc5c4cc4n(c5=O)Cc5cc6cc7c(cc6nc5-4)OCO7)C(C)C)cc3)c2)c1 [Compound 5, sodium salt]

>  <target.under.test>
NCI H292

>  <IC50>
< 0.01 nM

$$$$
>  <molecule>
CCCNC(=O)Nc1cccc(S(=O)(=O)Nc2cccc([C@@H](CC(=O)O)NC(=O)Nc3ccc(NC(=O)NCCOCCOCCOCCC(=O)N[C@@H](CC(=O)O)C(=O)N4CCC[C@H]4C(=O)N[C@H](C(=O)O[C@]4(CC)C(=O)OCc5c4cc4n(c5=O)Cc5c-4nc4cc(F)c(C)c6c4c5[C@@H](NC(=O)OCc4ccccc4)CC6)C(C)C)cc3)c2)c1

>  <target.under.test>
NCI H292

>  <IC50>
0.01 to 0.1 nM

$$$$
>  <molecule>
CCCNC(=O)Nc1cccc(S(=O)(=O)Nc2cccc([C@@H](CC(=O)O)NC(=O)Nc3ccc(NC(=O)NCCOCCOCCOCCC(=O)N[C@@H](CC(=O)O)C(=O)N4CCC[C@H]4C(=O)N[C@H](C(=O)O[C@]4(CC)C(=O)OCc5c4cc4n(c5=O)Cc5c-4nc4cc(F)c(C)c6c4c5[C@@H](N)CC6)C(C)C)cc3)c2)c1

>  <target.under.test>
NCI H292

>  <IC50>
0.01 to 0.1 nM

$$$$
>  <molecule>
CCCNC(=O)Nc1cccc(S(=O)(=O)Nc2cccc([C@H](CC(=O)O)NC(=O)Nc3ccc(NC(=O)NCCOCCOCCOCCC(=O)N[C@@H](CC(=O)O)C(=O)N4CCC[C@H]4C(=O)N[C@H](C(=O)O[C@]4(CC)C(=O)OCc5c4cc4n(c5=O)Cc5c-4nc4cc(F)c(C)c6c4c5[C@@H](NC(C)=O)CC6)C(C)C)cc3)c2)c1

>  <target.under.test>
NCI H292

>  <IC50>
0.01 to 0.1 nM

$$$$

----------
# Test system: SUM149
# experimental.details: Cytotoxicity in vitro in the presence and absence of elastase (MTT)
# Format: cell-based
# condition.details: read-out: SUM149 IC50 w/o
Counter-ions that a name gives are not always drawn.
measured.attribute: IC50

>  <compound>
CCCNC(=O)Nc1cccc(S(=O)(=O)Nc2cccc([C@@H](CC(=O)O)NC(=O)Nc3ccc(NC(=O)NCCOCCOCCOCCC(=O)N[C@@H](CC(=O)O)C(=O)N4CCC[C@H]4C(=O)N[C@H](C(=O)O[C@]4(CC)C(=O)OCc5c4cc4n(c5=O)Cc5c-4nc4cc(F)c(C)c6c4c5[C@@H](N)CC6)C(C)C)cc3)c2)c1 [Compound 4]

>  <measured.attribute>
IC50

>  <measurement>
1.1 to 10 nM

$$$$
>  <compound>
CCCNC(=O)Nc1cccc(S(=O)(=O)Nc2cccc([C@H](CC(=O)O)NC(=O)Nc3ccc(NC(=O)NCCOCCOCCOCCC(=O)N[C@@H](CC(=O)O)C(=O)N4CCC[C@H]4C(=O)N[C@H](C(=O)O[C@]4(CC)C(=O)OCc5c4cc4n(c5=O)Cc5cc6cc7c(cc6nc5-4)OCO7)C(C)C)cc3)c2)c1 [Compound 15, sodium salt]

>  <measured.attribute>
IC50

>  <measurement>
1.1 to 10 nM

$$$$
>  <compound>
CCCNC(=O)Nc1cccc(S(=O)(=O)Nc2cccc([C@H](CC(=O)O)NC(=O)Nc3ccc(NC(=O)NCCOCCOCCOCCC(=O)N[C@@H](CC(=O)O)C(=O)N4CCC[C@H]4C(=O)N[C@H](C(=O)O[C@]4(CC)C(=O)OCc5c4cc4n(c5=O)Cc5c-4nc4cc(F)c(C)c6c4c5[C@@H](NC(C)=O)CC6)C(C)C)cc3)c2)c1 [Compound 13]

>  <measured.attribute>
IC50

>  <measurement>
1.1 to 10 nM

$$$$
>  <compound>
CCCNC(=O)Nc1cccc(S(=O)(=O)Nc2cccc([C@@H](CC(=O)O)NC(=O)Nc3ccc(NC(=O)NCCOCCOCCOCCC(=O)N[C@@H](CC(=O)O)C(=O)N4CCC[C@H]4C(=O)N[C@H](C(=O)O[C@]4(CC)C(=O)OCc5c4cc4n(c5=O)Cc5c-4nc4cc(F)c(C)c6c4c5[C@@H](NC(=O)OCc4ccccc4)CC6)C(C)C)cc3)c2)c1 [Compound 3]

>  <measured.attribute>
IC50

>  <measurement>
10 to 100 nM

$$$$
>  <compound>
CCCNC(=O)Nc1cccc(S(=O)(=O)Nc2cccc([C@@H](CC(=O)O)NC(=O)Nc3ccc(NC(=O)NCCOCCOCCOCCC(=O)N[C@@H](CC(=O)O)C(=O)N4CCC[C@H]4C(=O)N[C@H](C(=O)O[C@]4(CC)C(=O)OCc5c4cc4n(c5=O)Cc5cc6cc7c(cc6nc5-4)OCO7)C(C)C)cc3)c2)c1 [Compound 5, sodium salt]

>  <measured.attribute>
IC50

>  <measurement>
1.1 to 10 nM

$$$$

----------
# Tested on: SUM149
# experimental.details: Cytotoxicity in vitro in the presence and absence of elastase (MTT)
# Type: cell-based
# condition.details: SUM149 cells; without elastase; 72 h; MTT; read-out: SUM149 IC50 w/o
pIC50: −log10 of the molar value.
measured.attribute: pIC50

>  <smiles>
CCCNC(=O)Nc1cccc(S(=O)(=O)Nc2cccc([C@@H](CC(=O)O)NC(=O)Nc3ccc(NC(=O)NCCOCCOCCOCCC(=O)N[C@@H](CC(=O)O)C(=O)N4CCC[C@H]4C(=O)N[C@H](C(=O)O[C@]4(CC)C(=O)OCc5c4cc4n(c5=O)Cc5c-4nc4cc(F)c(C)c6c4c5[C@@H](N)CC6)C(C)C)cc3)c2)c1

>  <measured.attribute>
pIC50

>  <measurement>
8.00 to 8.96

$$$$
>  <smiles>
CCN[C@H]1CCc2c(C)c(F)cc3nc4c(c1c23)Cn1c-4cc2c(c1=O)COC(=O)[C@]2(O)CC.O=C(O)C(F)(F)F

>  <measured.attribute>
pIC50

>  <measurement>
10.00 to 11.00

$$$$
>  <smiles>
CCCNC(=O)Nc1cccc(S(=O)(=O)Nc2cccc([C@@H](CC(=O)[O-])NC(=O)Nc3ccc(NC(=O)NCCOCCOCCOCCC(=O)N[C@@H](CC(=O)[O-])C(=O)N4CCC[C@H]4C(=O)N[C@H](C(=O)O[C@]4(CC)C(=O)OCc5c4cc4n(c5=O)Cc5c-4nc4cc(F)c(C)c6c4c5[C@@H](NC(C)=O)CC6)C(C)C)cc3)c2)c1.[Na+].[Na+]

>  <measured.attribute>
pIC50

>  <measurement>
8.00 to 8.96

$$$$
>  <smiles>
CC[C@@]1(O)C(=O)OCc2c1cc1n(c2=O)Cc2c-1nc1cc(F)c(C)c3c1c2[C@@H](NC(=O)C(F)(F)F)CC3

>  <measured.attribute>
pIC50

>  <measurement>
> 11.00

$$$$

These data points were gathered from patent US20250032477A1.
